B1: TPR t1 (parent)
chain: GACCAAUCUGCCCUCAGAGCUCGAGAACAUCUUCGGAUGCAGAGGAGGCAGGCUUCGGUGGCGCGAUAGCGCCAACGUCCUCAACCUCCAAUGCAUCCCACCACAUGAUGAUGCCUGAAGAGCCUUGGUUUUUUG

# Variants of: B1
# experiment: polymerase ribozyme fitness, log enrichment relative to wild type (log ratio); higher = more active; in vitro selection for triplet polymerase activity
property.measured: polymerase ribozyme fitness (log ratio)

> print(dat)
                             mutation.string  reported
 1                            C8G C72A C102A     -1.22
 2                      U21C U78C U96C C114A     -1.81
 3                             U7A A18U U59C     -2.69
 4                   U9A G44A G69A C72U U87C     -3.54
 5                 G44C U54A C64U C82U C114G     -4.69
 6                                 A46U G69A     -3.54
 7                          G58U A103C A121G     -4.29
 8                          G63U C114A U133A     -3.35
 9                                 C86A A90G     0.132
10                  C40A A43U G44C G71U C82A     -4.65
11                      G48A U54A A84U U129A     -1.42
12                                C72U C104U    -0.541
13                                 A29U G63U     -2.58
14                           C53G C56A G117C     -4.49
15                             C8U C22G U96A     -2.59
16                           C79U G93A C102A     -2.33
17                      U32G A41G C70U C114U     -4.09
18                           A41U C53A C115A     -1.03
19            C11G C15A G19U G69C C98A C114U     -6.19
20                       C12U C13A A27G G93A     -5.78
21                                 C11U C86U    -0.821
22                                  A2U C70G     -5.04
23                           A46U A90C U133A     -1.74
24                                 G60C G61C     -1.72
25                     G48U U96C U116A A121U     -1.06
26                           C76G C82G G128U      -3.7
27           G58A C64U U78C C86U A111C U129C     -1.68
28                               C101A U116A     -3.39
29                     C34G C72A U106G A119U     -7.42
30                           C62U G71C U131G    -0.416
31                      A43U G45A C56G G113A    -0.304
32                                 C11U C56U   -0.0444
33                                A26G U133G     -2.68
34                A29C A84G U87A C104U C124G     -1.28
35                                C15U C124G    -0.245
36                            A27G A50G U81A     -1.56
37                            C49A A66C U87A     -1.04
38                                 C13U C40A    -0.359
39                                     U130G    -0.361
40                            C12A G35A C49A      -5.9
41                           A41G G47U G120A     -3.73
42                                 G45C C72A    -0.797
43                        U9G C13U C49G C82U    -0.776
44                                A84U U130C     0.517
45                                G63U U133G     -1.94
46                       G17A G61A C73U A75C     -3.99
47                                 A50U C99U     -5.15
48                                C72G G117U     -2.41
49                                G57C C115A    0.0474
50                         U106A U109G A111U     -4.71
51                                  C4U C72A    -0.193
52                                 C4A C124A    -0.256
53                            G44U C53A C70A     -2.06
54                                C72A C114U     -1.24
55                                C89A C123U   -0.0853
56                                 G61A C64U     -1.86
57                        C4G A5C C82U U125A     -1.74
58                                C15G G117C     -3.41
59                                C70U G117A     -1.99
60                                C72U C101G     -2.18
61  C13A A29G U32A G39A G120A U126A U130G U134C     -2.77
62                            G44A C53A C56A     -1.42
63                            C20U A24U C56U     -6.92
64                                C72G C114U     -2.37
65                                 A37G C70U    -0.719
66                                C62G G110C     -6.06
67                            A2C G71A U112G     -2.44
68                            G44A U55A C70A     -3.95
69                           C13A A37C A118U     -1.38
70                 G19U C79U C82U A95C C101A     -4.63
71                      C20U G52A C70U G120A     -1.85
72                                 A50U G93A     -1.21
73                               C104A G110A     -3.18
74                       C80A C85U C86A U87C     -7.24
75                            A18U G42U A74G     -1.91
76                                 U14G G36C     -3.92
77                 G44C G69U U78C A95U C101U     -0.81
78                                  U9A U78A    -0.206
79                       A27C U32C G39A C98G     -7.35
80                                C89G G110U     -2.85
81                                 C11A U38C     -2.34
82                          U33A C102G U112A     -6.38
83                                 C53A C70U    0.0165
84                                 C12U C97U    -0.793
85                       C3U C34G C73U C123U     -4.72
86                                      A91U     -1.81
87                     C28U G77A U112G U125A     -3.35
88                           A37U G52C G120C      0.23
89       C11U A41C C49G U59A G61U A91C U130G     -3.24
90                       A37G U55C C56A C88A     -4.55
91                                 A6C C101A     -1.63
